Tested on: LNCaP tumor-bearing male CB-17 SCID mice
Assay Notes: Biodistribution studies 24 h p.i.
Test Context: Table 6
Measurement Type: In vivo biodistribution (24 h p.i.) tumor
# number then unit; no other words

Answered cases to consult:
CC(C)(C)[Si](F)(c1ccc(C(=O)NC[C@@H](NC(=O)[C@@H](CCCNC(N)=O)NC(=O)CC[C@@H](C(=O)O)N2CCN(CC(=O)O)CCN(CC(=O)O)CCN(CC(=O)O)CC2)C(=O)NCCCCCC(=O)NCCC[C@@H](NC(=O)CC[C@H](NC(=O)N[C@@H](CCC(=O)O)C(=O)O)C(=O)O)C(=O)O)cc1)C(C)(C)C = 16.54 ± 3.37 % iA/g
CC(C)(C)[Si](F)(c1ccc(C(=O)NC[C@@H](NC(=O)CN2CCN(CC(=O)O)CCN(CC(=O)O)CCN(CC(=O)O)CC2)C(=O)N[C@H](CO)C(=O)NCCC(=O)NCCC(=O)NCCC[C@@H](NC(=O)CC[C@H](NC(=O)N[C@@H](CCC(=O)O)C(=O)O)C(=O)O)C(=O)O)cc1)C(C)(C)C = 7.59 ± 1.23 % iA/g
CC(C)(C)[Si](F)(c1ccc(C(=O)NC[C@@H](NC(=O)[C@@H](CCCNC(N)=O)NC(=O)CC[C@H](C(=O)O)N2CCN(CC(=O)O)CCN(CC(=O)O)CCN(CC(=O)O)CC2)C(=O)NCCCCCC(=O)NCCC[C@@H](NC(=O)CC[C@H](NC(=O)N[C@@H](CCC(=O)O)C(=O)O)C(=O)O)C(=O)O)cc1)C(C)(C)C = 8.98 ± 2.32 % iA/g

Proceed to the following item.
## Task Item CC(C)(C)[Si](F)(c1ccc(C(=O)NCC(NC(=O)CCC(C(=O)O)N2CCN(CC(=O)O)CCN(CC(=O)O)CCN(CC(=O)O)CC2)C(=O)NC(CN)C(=O)NCCC(=O)NCCC(=O)NCCCC(NC(=O)CCC(NC(=O)NC(CCC(=O)O)C(=O)O)C(=O)O)C(=O)O)cc1)C(C)(C)C (stereo not shown) with LNCaP tumor-bearing male CB-17 SCID mice - In vivo biodistribution (24 h p.i.) tumor?
## Result 11.86 ± 0.75 % iA/g
